test system: K-562 leukemia; experiment: NCI-60 one-dose screen, 48 h; conditions: 10 µM unless noted
About 83,000 compounds went through this panel and 20% of them were active in at least one assay; those are over-represented in the sample as a whole. Calls of active or inactive are those of the source. Rule for the calls: active = growth percent below 10; inactive = the rest.
Classes used: active, inactive

[
  {
    "COMPOUND": "O=C(Nc1ccc2ncnc(Nc3ccc(Oc4cccc(F)c4)c(Cl)c3)c2c1)c1ccc(CN2CCOCC2)cc1",
    "GROUP LABEL": "active"
  },
  {
    "COMPOUND": "C=C1C(=O)O[C@H]2[C@H]1CC/C(CNC(=O)/C=C/c1ccccc1F)=C\\CC[C@@]1(C)O[C@@H]21",
    "GROUP LABEL": "active"
  },
  {
    "COMPOUND": "O=C(Nc1ccc(Cl)cc1)Nc1ccc(Cl)c(Cl)c1",
    "GROUP LABEL": "active"
  },
  {
    "COMPOUND": "COc1ccc(/C=C\\c2nc3ccccc3s2)cc1OP(=O)(O)O",
    "GROUP LABEL": "inactive"
  },
  {
    "COMPOUND": "COc1ccccc1/C=N/NC1=NC2C(N1)N(C)C(=O)N2C (centres undefined)",
    "GROUP LABEL": "inactive"
  },
  {
    "COMPOUND": "CCN(CC)CCCC(Nc1c2ccc(Cl)cc2nc2ccc(OC)cc12)c1ccc(Cl)cc1 (centres undefined)",
    "GROUP LABEL": "active"
  },
  {
    "COMPOUND": "COc1ccc(C(=O)/C=C/c2ccc(OCc3ccccc3)c(OC)c2)cc1OC",
    "GROUP LABEL": "inactive"
  },
  {
    "COMPOUND": "O=C(N/N=C/c1ccc(O)c(O)c1)c1sc2ccccc2c1Cl",
    "GROUP LABEL": "inactive"
  },
  {
    "COMPOUND": "COc1ccc(/C=N/C2=C(C#N)C(c3ccccc3[N+](=O)[O-])c3ccc4ccccc4c3O2)cc1 (centres undefined)",
    "GROUP LABEL": "inactive"
  },
  {
    "COMPOUND": "COc1ccc(/C=C/C(=O)c2ccc(OC)c(OC)c2)cc1O",
    "GROUP LABEL": "inactive"
  },
  {
    "COMPOUND": "CCCCCCCCCCCC(=O)C(CCCCCCCCCC)C(=O)Nc1ccccc1 (centres undefined)",
    "GROUP LABEL": "inactive"
  },
  {
    "COMPOUND": "Cc1c([N+](=O)[O-])cc(C(C)(C)C)cc1[N+](=O)[O-]",
    "GROUP LABEL": "inactive"
  },
  {
    "COMPOUND": "CC(=O)OCC(=O)[C@@]1(O)CC[C@H]2[C@@H]3CC(=C(Br)Br)C4=CC(=O)CC[C@]4(C)[C@H]3C(=O)C[C@@]21C",
    "GROUP LABEL": "inactive"
  },
  {
    "COMPOUND": "CCC1(CC)NC(=O)c2c(c3ccc(Cl)c(Cl)c3n2C)C1C#N (centres undefined)",
    "GROUP LABEL": "inactive"
  },
  {
    "COMPOUND": "C(=C\\c1n(Cc2ccc3ccccc3c2)c(-c2ccccc2)c(-c2ccccc2)[n+]1Cc1ccc2ccccc2c1)/c1ccccc1",
    "GROUP LABEL": "active"
  },
  {
    "COMPOUND": "CC(=O)[C@@H]1CC[C@]2(C(=O)n3ccnc3)CC[C@]3(C)[C@H](CC[C@@H]4[C@@]5(C)Cc6c([nH]c7ccccc67)C(C)(C)[C@@H]5CC[C@]43C)[C@@H]12",
    "GROUP LABEL": "inactive"
  },
  {
    "COMPOUND": "COc1ccc(-c2nc(N/N=C/c3ccco3)nc(N3CCOCC3)c2C#N)cc1",
    "GROUP LABEL": "inactive"
  },
  {
    "COMPOUND": "CC(=O)c1cc2c(N)c(C(=O)Nc3cncc4ccccc34)sc2nc1C",
    "GROUP LABEL": "inactive"
  },
  {
    "COMPOUND": "CCNC(=O)c1[nH]cc(-c2ccc(OC)cc2)c1-c1cc(OC)c(OC)c(OC)c1",
    "GROUP LABEL": "inactive"
  }
]
